Molecular target: T1, extracellular domain of human CD73 protein, C-terminus polyhistidine-tagged (human, UniProt P21589 27-547)
T1 construct: also the immunogen; also called CD73-ECD; human CD73-ECD
T1 sequence: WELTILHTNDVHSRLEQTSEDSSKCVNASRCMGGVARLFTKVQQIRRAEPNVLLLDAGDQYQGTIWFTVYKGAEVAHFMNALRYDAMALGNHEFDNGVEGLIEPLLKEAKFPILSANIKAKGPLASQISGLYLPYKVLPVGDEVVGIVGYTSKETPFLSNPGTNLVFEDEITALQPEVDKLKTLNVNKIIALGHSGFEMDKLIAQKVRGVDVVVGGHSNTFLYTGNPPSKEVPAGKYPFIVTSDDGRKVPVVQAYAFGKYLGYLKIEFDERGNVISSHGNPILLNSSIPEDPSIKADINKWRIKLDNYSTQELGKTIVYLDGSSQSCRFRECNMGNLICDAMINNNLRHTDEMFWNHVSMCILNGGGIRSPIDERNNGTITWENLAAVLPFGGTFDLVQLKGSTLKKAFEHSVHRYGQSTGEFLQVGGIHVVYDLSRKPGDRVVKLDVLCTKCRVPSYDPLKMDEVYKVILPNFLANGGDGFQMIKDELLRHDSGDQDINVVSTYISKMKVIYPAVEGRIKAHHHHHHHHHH
Assay: ForteBio OCTET R2 (the filing calls it SPR); antibody on Protein A sensor, CD73-ECD in solution; traces labelled 100, 50, 25, 12.5, 6.25
Procedure: Surface plasmon resonance (SPR) assay: Protein A sensor was used to immobilize the antibodies, with an immobilization height of about 1.5 nM. […] Affinity detection: equilibrium for 60 s, binding for 180 s, dissociation for 180 s, at a detection temperature of 25° C. Kinetic characterization analysis was performed using the ForteBio OCTET R2 system.
MEASURED_METRIC: kon

// known answers, use as guide
binder="chimeric nanobody 5-E11 (Fc fusion, Human-alpaca chimeric antibody (VHH on hIgG1 Fc); Only the VHH is tied to the tested molecule; also called original antibody 5-E11) VHH: ALQLVESGGGLVQPGGSLRLSCEVSGFTLDYYNIGWFRQAPGKEREGVSCSSNSGGSTYYADSVKGRFTISRDNAKNTVYLQMNSLKPEDTGVYYCAAYRGWHPSLDARVYDYWGQGTEVTVSS" observed_result="385000 M⁻¹ s⁻¹"
binder="chimeric nanobody 4-B02 (Fc fusion, Human-alpaca chimeric antibody) VHH: EVQLVESGGGLVQPGGSLRLSCAASGFPLDYYSIGWFRQAPGKEREGVSCIGSSDGSTYYADSVKGRFTISRDNAENTVWLQMNSLKPEDTAVYYCAALKYYYCSGHEAIYDYWGQGTQVTVSG" observed_result="263000 M⁻¹ s⁻¹"

Query :: Looking for the measured kon of chimeric nanobody 4-D04 (Fc fusion, Human-alpaca chimeric antibody) VHH: QLQLVESGGGLVQPGGSLRLSCAASGFTLDYYNIGWFRQAPGKEREGVSCISSSEGSTYYADSVKGRFTISRDNAKNTVYLQMNSLKPEDTAVYYCAADRYYYCSLHVSQYDYWGQGTLVTVSS , can you help?
Result :: 301000 M⁻¹ s⁻¹

Query :: Repeat for the following binder: chimeric nanobody 3-D7 (Fc fusion, Human-alpaca chimeric antibody (VHH on hIgG1 Fc); Only the VHH is tied to the tested molecule; 37-39 exist for 3-D7-FC1/FC2/FC3; also called original antibody 3-D7) VHH: QRQLVESGGGLVQPGGSLRLSCAASGFLLDYYVIGWFRQAPGKEREGVSCISGSDRSTYYADSVKGRFTISRDNAKNTVYLQMNSLKPEDTAVYFCAADPSPVTVQAMCLPRFPVPYWGQGTQVTVST
Result :: 223000 M⁻¹ s⁻¹

Numbers sourced from patent US20250382376A1.
